# Target of assay: UniProt:P06730
# Sequence (P06730 2-217): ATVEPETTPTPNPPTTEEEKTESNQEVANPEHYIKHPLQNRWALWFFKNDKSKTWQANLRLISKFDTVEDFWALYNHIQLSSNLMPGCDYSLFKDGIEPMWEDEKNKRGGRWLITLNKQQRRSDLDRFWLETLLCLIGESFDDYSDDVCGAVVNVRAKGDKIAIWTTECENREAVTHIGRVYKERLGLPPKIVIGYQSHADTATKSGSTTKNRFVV
# Sequence (Q13541 2-118 partner): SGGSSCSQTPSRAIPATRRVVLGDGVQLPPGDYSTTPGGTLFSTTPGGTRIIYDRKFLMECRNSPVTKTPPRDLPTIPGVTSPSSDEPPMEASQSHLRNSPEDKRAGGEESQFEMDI
# Sequence (Q04637 whole entry partner): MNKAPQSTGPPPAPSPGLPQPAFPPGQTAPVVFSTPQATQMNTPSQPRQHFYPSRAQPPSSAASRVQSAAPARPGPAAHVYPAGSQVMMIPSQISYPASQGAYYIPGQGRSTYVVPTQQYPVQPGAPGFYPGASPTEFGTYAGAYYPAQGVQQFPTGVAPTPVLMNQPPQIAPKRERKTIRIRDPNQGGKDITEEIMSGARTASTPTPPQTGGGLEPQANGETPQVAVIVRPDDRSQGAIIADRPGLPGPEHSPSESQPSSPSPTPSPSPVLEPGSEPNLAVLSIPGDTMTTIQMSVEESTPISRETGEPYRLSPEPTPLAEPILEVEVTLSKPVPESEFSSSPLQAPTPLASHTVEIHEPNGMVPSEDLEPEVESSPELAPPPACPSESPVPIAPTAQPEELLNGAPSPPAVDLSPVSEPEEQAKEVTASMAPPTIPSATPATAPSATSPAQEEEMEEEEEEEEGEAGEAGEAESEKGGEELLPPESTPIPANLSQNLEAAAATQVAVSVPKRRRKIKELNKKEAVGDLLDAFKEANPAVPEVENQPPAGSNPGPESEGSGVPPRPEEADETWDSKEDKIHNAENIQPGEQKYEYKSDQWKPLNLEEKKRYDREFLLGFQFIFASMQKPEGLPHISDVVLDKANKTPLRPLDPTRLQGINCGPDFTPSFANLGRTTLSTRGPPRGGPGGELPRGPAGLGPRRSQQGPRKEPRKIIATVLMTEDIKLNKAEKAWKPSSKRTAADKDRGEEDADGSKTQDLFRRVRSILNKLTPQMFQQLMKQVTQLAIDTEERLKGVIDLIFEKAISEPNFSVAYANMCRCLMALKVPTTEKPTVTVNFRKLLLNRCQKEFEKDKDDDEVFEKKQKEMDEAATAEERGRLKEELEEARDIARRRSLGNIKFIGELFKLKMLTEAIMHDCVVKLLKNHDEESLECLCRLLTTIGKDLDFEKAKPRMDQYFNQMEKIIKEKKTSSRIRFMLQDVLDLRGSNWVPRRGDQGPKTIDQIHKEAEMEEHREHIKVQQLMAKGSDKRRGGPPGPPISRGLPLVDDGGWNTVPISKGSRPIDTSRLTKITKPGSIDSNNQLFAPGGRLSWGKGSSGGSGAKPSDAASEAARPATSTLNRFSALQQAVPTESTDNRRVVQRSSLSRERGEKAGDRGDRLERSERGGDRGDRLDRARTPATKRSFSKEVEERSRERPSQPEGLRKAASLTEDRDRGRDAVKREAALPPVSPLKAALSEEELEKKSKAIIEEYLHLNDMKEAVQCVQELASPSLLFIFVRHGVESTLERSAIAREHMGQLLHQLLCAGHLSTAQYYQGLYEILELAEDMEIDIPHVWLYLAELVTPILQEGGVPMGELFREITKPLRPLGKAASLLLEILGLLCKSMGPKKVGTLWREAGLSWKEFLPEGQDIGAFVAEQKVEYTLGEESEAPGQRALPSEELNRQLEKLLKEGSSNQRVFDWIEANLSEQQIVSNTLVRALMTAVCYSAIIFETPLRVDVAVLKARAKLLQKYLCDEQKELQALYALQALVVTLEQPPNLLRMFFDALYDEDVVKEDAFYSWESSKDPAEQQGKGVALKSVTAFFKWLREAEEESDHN
Recorded metric: IC50 (nM)
Give your result in nM as a bare value.

Q) Fill in the blank: the reported IC50 of O=C(O)c1ccc(N2C(=O)/C(=C\c3ccc(-c4ccc([N+](=O)[O-])cc4)o3)C=C2c2ccccc2)cc1 [4E1RCat] is ____.
A) 1800
